# SUBJECT OF TEST: rat TAAR1 (Rattus norvegicus (Rat))
# Sequence (Q923Y9 whole entry): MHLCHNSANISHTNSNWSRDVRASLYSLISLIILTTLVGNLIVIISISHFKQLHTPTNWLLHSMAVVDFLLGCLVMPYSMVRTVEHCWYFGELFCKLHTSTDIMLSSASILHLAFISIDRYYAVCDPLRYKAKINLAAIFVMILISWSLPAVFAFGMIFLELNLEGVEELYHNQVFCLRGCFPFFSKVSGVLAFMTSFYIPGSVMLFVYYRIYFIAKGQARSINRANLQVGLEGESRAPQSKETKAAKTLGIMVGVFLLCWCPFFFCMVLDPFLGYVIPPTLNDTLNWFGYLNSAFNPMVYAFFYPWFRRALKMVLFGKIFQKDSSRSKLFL
METRIC NAME: Kd

IN: Param readout = Kd; param system = rat TAAR1 (Rattus norvegicus (Rat)); param query = CCN(C[C@H]1COC(N)=N1)c1ccccc1 [reference compound] ; response: value
OUT: ~2.3 nM

---

Measured Ki by item
# SUBJECT OF TEST: mouse TAAR1 (Mus musculus (Mouse))
# Sequence (Q923Y8 whole entry): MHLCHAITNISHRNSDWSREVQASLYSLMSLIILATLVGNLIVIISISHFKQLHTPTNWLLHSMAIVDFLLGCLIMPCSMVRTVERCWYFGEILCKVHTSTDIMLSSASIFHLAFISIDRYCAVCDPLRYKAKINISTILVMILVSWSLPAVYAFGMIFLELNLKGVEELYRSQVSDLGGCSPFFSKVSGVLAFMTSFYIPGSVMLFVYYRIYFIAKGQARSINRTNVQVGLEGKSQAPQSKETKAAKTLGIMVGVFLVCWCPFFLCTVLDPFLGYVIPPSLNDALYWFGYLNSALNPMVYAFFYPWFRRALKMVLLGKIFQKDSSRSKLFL
# TEST METHOD NOTES: Radioligand binding assay on mouse TAAR1
# TEST PARAMETERS: mouse TAAR1, membranes of stably transfected HEK-293 cells; first value of mouse/rat pair
// units = µM; emit number, no label

Take a look at these entries with their results.
> print(dat)
                                   compound  unit.label  reported.measurement
1  CC(=O)Nc1cc(C(=O)Nc2ccc3c(c2)CC[C@H](N)C3)ccn1          µM                  0.71
2  Cc1ccc(-n2cc(C(=O)Nc3ccc4c(c3)CC[C@H](N)C4)cn2)cc1          µM                0.0028
3  N[C@@H]1CCc2cc(C(=O)Nc3cccc(OC(F)(F)F)c3)ccc2C1          µM                0.0073
4  N[C@H]1CCc2cc(NC(=O)c3ccnc(C(F)(F)F)c3)ccc2C1          µM                0.0117
5  NC1CCc2cc(C(=O)Nc3cccc(OC(F)(F)F)c3)ccc2C1 (centres unmarked)          µM                 0.003

IN: For the compound shown here, CCc1ccc(NC(=O)Nc2ccc3c(c2)CC[C@H](N)C3)cc1 , give the reported Ki.
OUT: 0.003

IN: For the compound shown here, N[C@H]1COc2cc(Nc3ncc(Cl)cn3)ccc2C1 , give the reported Ki.
OUT: 0.042

IN: For the compound shown here, N[C@H]1CCc2cc(NC(=O)c3ccc(C(F)(F)F)nc3)ccc2C1 , give the reported Ki.
OUT: 0.0265

IN: For the compound shown here, CCn1nc(C(=O)Nc2ccc3c(c2)CC[C@H](N)C3)c(Br)c1OCC(F)F , give the reported Ki.
OUT: 0.0128

IN: For the compound shown here, N[C@H]1CCc2cc(NC(=O)Nc3ccc(OC(F)(F)F)cc3)ccc2C1 , give the reported Ki.
OUT: 0.0012

IN: For the compound shown here, Cc1nc(-c2ccc(C(=O)Nc3ccc4c(c3)OC[C@H](N)C4)cc2)cs1 , give the reported Ki.
OUT: 0.0018
